Known activity change, negative = cytotoxicity of a selection of compounds
- experiment notes: Cell Viability - Mesenchymal (AID 546);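 also: cells exposed to compound for 40 hours before reading; 0% = DMSO only and -100% = 100 µM tamoxifen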
- test settings: mesenchymal cells viability, qHTS; at 91.7 µM (top of the series)
Inconclusive results are not listed.
Please reply with the bare figure in % and do not write the unit itself.

As a guide, the following entries are already answered.
compound: C=C(C)C1CC=C(C)C(O)C1 (stereo not given)
endpoint result: 2.7

compound: C=Cc1ccccc1Cl
endpoint result: 4.39

We next turn to a different compound, shown below.
What value of measured activity change, negative = cytotoxicity is listed for `CCCCCCCCO` ? -3.19

====

- Tested on: W2
- experiment notes: qHTS profiling for inhibitors of Plasmodium falciparum proliferation (AID 504749); also: nearly all actives have a fitted effect of over 60% in size
- test settings: P. falciparum in erythrocytes, SYBR Green DNA, 72 h; series mostly up to 28.7 µM
Records with an inconclusive call do not appear. Activity calls are given as the source filed them. Calls follow the shape of the dose curve; as a rule, active = well fitted inhibition curve with a large enough effect; inconclusive = small, poorly fitted or top-dose-only effect; inactive = flat fitted curve, though single readings scatter. Bridge positions count the residues as written; N and C are the ends. Square brackets hold non-standard residues; d marks the D form. Peptide text beside a SMILES is read from it. * marks the point of attachment. Octanoyl(6-Me) = CCC(C)CCCCC(=O)*; Dab = NCC[CH](N)C(=O)O
// classify into t = active, f = inactive

Take a look at these entries with their results.
molecule: CCN1/C(=C/C=C/C=C/c2sc3ccccc3[n+]2CC)Sc2ccccc21
tested on: W2
group: t
//
molecule: CC1CCC(C(C)C)C(OC(=O)c2ccccc2O)C1 (configuration not stated)
tested on: W2
group: f
//
molecule: Nc1nc(Cl)nc2c1ncn2C1CC(O)C(CO)O1 (configuration not stated)
tested on: W2
group: f
//
molecule: Cc1cc(CC(C)CC(C)(C)C)n(O)c(=O)c1 (configuration not stated)
tested on: W2
group: t
//
molecule: S=C1NC=NC2N=CNC12 (configuration not stated)
tested on: W2
group: f

GET /call?item= O=C(O)c1cc(O)c2c(c1)[C@H]([C@H]1c3cc(C(=O)O)cc(O)c3C(=O)c3c(O[C@@H]4OC(CO)C(O)C(O)C4O)cccc31)c1cccc(O[C@@H]3OC(CO)C(O)C(O)C3O)c1C2=O (some centres not stated) returns the recorded outcome of this test. f

Same for CCC(C)CCCCC(=O)NC(CCN)C(=O)NC(C(=O)NC(CCN)C(=O)NC1CCNC(=O)C(C(C)O)NC(=O)C(CCN)NC(=O)C(CCN)NC(=O)C(CC(C)C)NC(=O)C(Cc2ccccc2)NC(=O)C(CCN)NC1=O)C(C)O (configuration not stated) ({Octanoyl(6-Me)}-[Dab]T[Dab][Dab][Dab]FL[Dab][Dab]T; lactam 4-C; configuration not given here) f

====

- tested on: Rap guanine nucleotide exchange factor 3 (Homo sapiens)
- experiment notes: Counterscreen qHTS for antagonist of cAMP-regulated guanine nucleotide exchange factor 3 (EPAC1) (AID 1645888);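 also: fluorescence loss as bound BODIPY-GDP is released from Rap1B; % of control where 0% means no effect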
- test settings: Rap1B-BODIPY-GDP nucleotide exchange, fluorescence; series mostly up to 154 µM
Records with an inconclusive call do not appear. Active and inactive are the calls of the source. Calls come from the whole dose curve; as a rule, active = well fitted inhibition curve with a large enough effect; inconclusive = small, poorly fitted or top-dose-only effect; inactive = no such curve, though single readings can be large or run the other way.
measured property: activity change, negative = inhibition

Look over these answered cases.
compound: CCC(=O)N1N=C(c2ccc(Cl)cc2)CC1c1ccco1 (stereo unspecified)
activity change, negative = inhibition: inactive
--
compound: O=C(O)c1ccc(N/N=C/c2ccc(-c3ccccc3Cl)o2)cc1
activity change, negative = inhibition: 1.4% [at 30.8 µM] (inactive)
--
compound: N#Cc1c(NC(=O)CSc2ncnc3sccc23)oc(-c2ccco2)c1-c1ccco1
activity change, negative = inhibition: inactive
--
compound: COc1ccc(C(=O)c2ccc(Br)cc2)c(OC)c1OC
activity change, negative = inhibition: inactive
--
compound: COC(=O)c1cc(C#N)c(Oc2ccccc2OC)nc1C
activity change, negative = inhibition: inactive
--
compound: CC(C)CCN1C(=O)c2cccc3c(N)ccc(c23)C1=O
activity change, negative = inhibition: 154% [at 30.8 µM] (inactive)
--
compound: CCCCN1CC(c2nc3ccccc3n2CCCCOc2cc(C)ccc2C)CC1=O (stereo unspecified)
activity change, negative = inhibition: inactive
--
compound: COc1ccc(NC(=O)Cn2ncc(Cl)c(Cl)c2=O)cc1S(=O)(=O)N1CCOCC1
activity change, negative = inhibition: 1.4% [at 30.8 µM] (inactive)

State the recorded activity change, negative = inhibition for this entry: CC(=O)N1N=C2c3ccccc3CCC2C1c1cccs1 (stereo unspecified) -17.6% [at 30.8 µM] (inactive)

Another compound to check: `O=C(Nc1nc(-c2ccc(Cl)cc2)cs1)C1=COCCO1` -14.7% [at 30.8 µM] (inactive)

Further, for `O=c1[nH]c2ccccc2nc1/C=C(\O)c1cccs1` ? -7.08% [at 30.8 µM] (inactive)
